The measurements presented in this section are drawn from PubChem BioAssay AID1963854.

system: 186277-243-T-J2-PDC complex spheroid viability; assay: Anticancer human tumor 186277-243-T-J2-PDC patient-derived colon adenocarcinoma cell line growth inhibition [POLQ]; conditions: second compound 0.0316 µM; first compound 0.316 µM; active = viability on the fitted dose curve at most 10% of control; inactive = the rest;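 also: spheroids exposed to compounds for seven days; 100% = DMSO vehicle control viability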
Returns: one label drawn from 1 for active, 0 for inactive

q: Given C=CCn1c(=O)c2cnc(Nc3ccc(N4CCN(C)CC4)cc3)nc2n1-c1cccc(C(C)(C)O)n1 + Nc1ccc(C#CCN(C(=O)Cc2ncc(C(F)(F)F)cc2C(F)(F)F)c2ccc(F)cc2)nn1 , state the outcome it received in this test.
a: 0

q: Given CCc1cc2c(N3CCc4c(cc(Cn5ccnc5)cc4-c4cn(C)nc4C(F)(F)F)C3=O)ccnc2c(OC)n1 + Nc1ccc(C#CCN(C(=O)Cc2ncc(C(F)(F)F)cc2C(F)(F)F)c2ccc(F)cc2)nn1 , state the outcome it received in this test.
a: 0

q: Given O=C(c1cc(Cc2n[nH]c(=O)c3ccccc23)ccc1F)N1CCN(C(=O)C2CC2)CC1 + Nc1ccc(C#CCN(C(=O)Cc2ncc(C(F)(F)F)cc2C(F)(F)F)c2ccc(F)cc2)nn1 , state the outcome it received in this test.
a: 0

q: Given CC1COCCN1c1cc(-c2ccnn2C)c2ccnc(-c3ccn[nH]3)c2n1 (stereo not given) + COC1C(OC(N)=O)C(O)C(Oc2ccc3c(O)c(NC(=O)c4ccc(O)c(CC=C(C)C)c4)c(=O)oc3c2C)OC1(C)C , state the outcome it received in this test.
a: 1

q: Given C=CCn1c(=O)c2cnc(Nc3ccc(N4CCN(C)CC4)cc3)nc2n1-c1cccc(C(C)(C)O)n1 + COC1C(OC(N)=O)C(O)C(Oc2ccc3c(O)c(NC(=O)c4ccc(O)c(CC=C(C)C)c4)c(=O)oc3c2C)OC1(C)C , state the outcome it received in this test.
a: 0

q: Given CC(C)n1c(=O)n(C)c2cnc3cc(F)c(-c4ccc(OCCCN5CCCCC5)nc4)cc3c21 + Cc1cccc(N(C)C(=O)C2C(O)CCN2c2nc(C)cc(C(F)(F)F)c2C#N)c1 , state the outcome it received in this test.
a: 0

q: Given C=CCn1c(=O)c2cnc(Nc3ccc(N4CCN(C)CC4)cc3)nc2n1-c1cccc(C(C)(C)O)n1 + Cc1cccc(N(C)C(=O)C2C(O)CCN2c2nc(C)cc(C(F)(F)F)c2C#N)c1 , state the outcome it received in this test.
a: 0

q: Given CNCc1ccc(-c2[nH]c3cc(F)cc4c3c2CCNC4=O)cc1 + Nc1ccc(C#CCN(C(=O)Cc2ncc(C(F)(F)F)cc2C(F)(F)F)c2ccc(F)cc2)nn1 , state the outcome it received in this test.
a: 0

q: Given Nc1ccn(C2OC(CO)C(O)C2(F)F)c(=O)n1 (stereo not given) + Cc1cccc(N(C)C(=O)C2C(O)CCN2c2nc(C)cc(C(F)(F)F)c2C#N)c1 , state the outcome it received in this test.
a: 1

q: Given CC1COCCN1c1cc(C2(S(C)(=N)=O)CC2)nc(-c2ccnc3[nH]ccc23)n1 (stereo not given) + COC1C(OC(N)=O)C(O)C(Oc2ccc3c(O)c(NC(=O)c4ccc(O)c(CC=C(C)C)c4)c(=O)oc3c2C)OC1(C)C , state the outcome it received in this test.
a: 0

q: Given C#Cc1c(F)ccc2cc(O)cc(-c3ncc4c(N5CC6CCC(C5)N6)nc(OCC56CCCN5CC(F)C6)nc4c3F)c12 (stereo not given) + Nc1ccc(C#CCN(C(=O)Cc2ncc(C(F)(F)F)cc2C(F)(F)F)c2ccc(F)cc2)nn1 , state the outcome it received in this test.
a: 0

q: Given CC(C)n1c(=O)n(C)c2cnc3cc(F)c(-c4ccc(OCCCN5CCCCC5)nc4)cc3c21 + COC1C(OC(N)=O)C(O)C(Oc2ccc3c(O)c(NC(=O)c4ccc(O)c(CC=C(C)C)c4)c(=O)oc3c2C)OC1(C)C , state the outcome it received in this test.
a: 0

q: Given COc1cccc2c1C(=O)c1c(O)c3c(c(O)c1C2=O)CC(O)(C(=O)CO)CC3OC1CC(N)C(O)C(C)O1 (stereo not given) + Nc1ccc(C#CCN(C(=O)Cc2ncc(C(F)(F)F)cc2C(F)(F)F)c2ccc(F)cc2)nn1 , state the outcome it received in this test.
a: 0

q: Given COc1cc(C2c3cc4c(cc3C(OC3OC5COC(C)OC5C(O)C3O)C3COC(=O)C23)OCO4)cc(OC)c1O (stereo not given) + Cc1cccc(N(C)C(=O)C2C(O)CCN2c2nc(C)cc(C(F)(F)F)c2C#N)c1 , state the outcome it received in this test.
a: 0

q: Given C=CC(=O)N1CCN(c2nc(=O)n(-c3c(C)ccnc3C(C)C)c3nc(-c4c(O)cccc4F)c(F)cc23)C(C)C1 (stereo not given) + COC1C(OC(N)=O)C(O)C(Oc2ccc3c(O)c(NC(=O)c4ccc(O)c(CC=C(C)C)c4)c(=O)oc3c2C)OC1(C)C , state the outcome it received in this test.
a: 0

q: Given CC1COCCN1c1cc(C2(O)CC3CCC(C2)O3)c2cnn(-c3ccn[nH]3)c2n1 (stereo not given) + Cc1cccc(N(C)C(=O)C2C(O)CCN2c2nc(C)cc(C(F)(F)F)c2C#N)c1 , state the outcome it received in this test.
a: 1

q: Given CCc1c2c(nc3ccc(O)cc13)-c1cc3c(c(=O)n1C2)COC(=O)[C@]3(O)CC + COC1C(OC(N)=O)C(O)C(Oc2ccc3c(O)c(NC(=O)c4ccc(O)c(CC=C(C)C)c4)c(=O)oc3c2C)OC1(C)C , state the outcome it received in this test.
a: 1

q: Given O=C(Nc1ccc(O)c(NS(=O)(=O)c2ccc(F)cc2)c1)c1ccc(-c2ccccc2)cc1 + COC1C(OC(N)=O)C(O)C(Oc2ccc3c(O)c(NC(=O)c4ccc(O)c(CC=C(C)C)c4)c(=O)oc3c2C)OC1(C)C , state the outcome it received in this test.
a: 0

q: Given CCc1c2c(nc3ccc(O)cc13)-c1cc3c(c(=O)n1C2)COC(=O)[C@]3(O)CC + Nc1ccc(C#CCN(C(=O)Cc2ncc(C(F)(F)F)cc2C(F)(F)F)c2ccc(F)cc2)nn1 , state the outcome it received in this test.
a: 0

q: Given COc1cc2cc(C(=O)CCC(=O)O)sc2cc1OC + Cc1cccc(N(C)C(=O)C2C(O)CCN2c2nc(C)cc(C(F)(F)F)c2C#N)c1 , state the outcome it received in this test.
a: 0
